binders and their reported koff
# Subject of test: T1, CTNI quality control recombinant protein (PK2-CTNI-1, 170120, produced by the applicant) (human, UniProt P19429 2-210, limits assumed)
# T1 construct: also called cardiac troponin I
# Test method notes: AMC sensor kinetics, antibody captured, cTnI analyte
# Protocol: Using the AMC sensor, the purified antibody was diluted with PBST to 10 μg/ml, and the CTNI quality control recombinant protein (PK2-CTNI-1, 170120, produced by the applicant) was serially diluted with PBST to 400 nmol/ml, 200 nmol/ml, 100 nmol/ml, 50 nmol/ml, 25 nmol/ml, 12.5 nmol/ml, 6.25 nmol/ml, and 0 nmol/ml.
Measurement type: koff (s⁻¹)

- Mutation 1-53 (antibody, V domains shown, built as for Mutation 1) VH: EVQLQQSGAELVKPGASVKLSCTASGFNIKDYYMHWMKQRTEQGLDWIGRIDPEDAETKYAPEFQGKATITADTSSNTAYLQLSTLTSEDTAVYYCARYYSSYLPFVYWGQGTLVTASA VL: DVVMTQTPLSLSVSLGDQASISCRSSQSIIYSNRHTYLHWYLQKPGQSPKLLIFQLSNRFSGVPDRFSGSGSGTDFTLKINRVEAEDLGVYFCSQSTHIPYTFGSGTKLEIKR: 0.000243
- Mutation 1-43 (antibody, V domains shown, built as for Mutation 1) VH: EVQLQQSGAELVKPGASVKLSCTASGFNLKDYYMHWMKQRTEQGLDWIGRIDPEDAETRYAPEFQGKATITADTSSNTAYLQLSTLTSEDTAVYYCARYYSSYVPFVYWGQGTLVTASA VL: DVVMTQTPLSLSVSLGDQASISCRSSQSIIYSNRHTYLHWYLQKPGQSPKLLIFQVSNRFSGVPDRFSGSGSGTDFTLKINRVEAEDLGVYFCSQSTHIPYTFGSGTKLEIKR: 7.75e-05
- Mutation 1-50 (antibody, V domains shown, built as for Mutation 1) VH: EVQLQQSGAELVKPGASVKLSCTASGFNLKDYFMHWMKQRTEQGLDWIGRIDPEDAETKYAPEFQGKATITADTSSNTAYLQLSTLTSEDTAVYYCARYYSSYIPFVYWGQGTLVTASA VL: DVVMTQTPLSLSVSLGDQASISCRSSQSILYSNRHTYLHWYLQKPGQSPKLLIFQISNRFSGVPDRFSGSGSGTDFTLKINRVEAEDLGVYFCSQSTHIPFTFGSGTKLEIKR: 5.48e-05
- Mutation 1-19 (antibody, V domains shown, built as for Mutation 1) VH: EVQLQQSGAELVKPGASVKLSCTASGFNIKDYYMHWMKQRTEQGLDWIGRIDPEDGETRYAPEFQGKATITADTSSNTAYLQLSTLTSEDTAVYYCARYYSSYLPFVYWGQGTLVTASA VL: DVVMTQTPLSLSVSLGDQASISCRSSQSLIYSNRHTYLHWYLQKPGQSPKLLIFQLSNRFSGVPDRFSGSGSGTDFTLKINRVEAEDLGVYFCSQSTHIPFTFGSGTKLEIKR: 0.000191
- Mutation 1-3 (antibody, V domains shown, built as for Mutation 1) VH: EVQLQQSGAELVKPGASVKLSCTASGFNIKDYYMHWMKQRTEQGLDWIGRIDPEDGETKYAPEFQGKATITADTSSNTAYLQLSTLTSEDTAVYYCARYYSSYLPFVYWGQGTLVTASA VL: DVVMTQTPLSLSVSLGDQASISCRSSQSLLYSNRHTYLHWYLQKPGQSPKLLIFQLSNRFSGVPDRFSGSGSGTDFTLKINRVEAEDLGVYFCSQSTHIPYTFGSGTKLEIKR: 0.000122
- Mutation 1-5 (antibody, V domains shown, built as for Mutation 1) VH: EVQLQQSGAELVKPGASVKLSCTASGFNLKDYYMHWMKQRTEQGLDWIGRIDPEDGETRYAPEFQGKATITADTSSNTAYLQLSTLTSEDTAVYYCARYYSSYIPFVYWGQGTLVTASA VL: DVVMTQTPLSLSVSLGDQASISCRSSQSIIYSNRHTYLHWYLQKPGQSPKLLIFQISNRFSGVPDRFSGSGSGTDFTLKINRVEAEDLGVYFCSQSTHIPFTFGSGTKLEIKR: 0.0001
- Mutation 1-52 (antibody, V domains shown, built as for Mutation 1) VH: EVQLQQSGAELVKPGASVKLSCTASGFNIKDYFMHWMKQRTEQGLDWIGRIDPEDAETRYAPEFQGKATITADTSSNTAYLQLSTLTSEDTAVYYCARYYSSYVPFVYWGQGTLVTASA VL: DVVMTQTPLSLSVSLGDQASISCRSSQSLLYSNRHTYLHWYLQKPGQSPKLLIFQVSNRFSGVPDRFSGSGSGTDFTLKINRVEAEDLGVYFCSQSTHLPFTFGSGTKLEIKR: 0.000229
- Mutation 1-33 (antibody, V domains shown, built as for Mutation 1) VH: EVQLQQSGAELVKPGASVKLSCTASGFNLKDYYMHWMKQRTEQGLDWIGRIDPEDAETKYAPEFQGKATITADTSSNTAYLQLSTLTSEDTAVYYCARYYSSYVPFVYWGQGTLVTASA VL: DVVMTQTPLSLSVSLGDQASISCRSSQSLIYSNRHTYLHWYLQKPGQSPKLLIFQVSNRFSGVPDRFSGSGSGTDFTLKINRVEAEDLGVYFCSQSTHIPFTFGSGTKLEIKR: 0.000881
- Mutation 1-46 (antibody, V domains shown, built as for Mutation 1) VH: EVQLQQSGAELVKPGASVKLSCTASGFNLKDYFMHWMKQRTEQGLDWIGRIDPEDAETRYAPEFQGKATITADTSSNTAYLQLSTLTSEDTAVYYCARYYSSYIPFVYWGQGTLVTASA VL: DVVMTQTPLSLSVSLGDQASISCRSSQSLIYSNRHTYLHWYLQKPGQSPKLLIFQISNRFSGVPDRFSGSGSGTDFTLKINRVEAEDLGVYFCSQSTHIPFTFGSGTKLEIKR: 0.00027
- Mutation 1-44 (antibody, V domains shown, built as for Mutation 1) VH: EVQLQQSGAELVKPGASVKLSCTASGFNIKDYFMHWMKQRTEQGLDWIGRIDPEDAETKYAPEFQGKATITADTSSNTAYLQLSTLTSEDTAVYYCARYYSSYLPFVYWGQGTLVTASA VL: DVVMTQTPLSLSVSLGDQASISCRSSQSILYSNRHTYLHWYLQKPGQSPKLLIFQLSNRFSGVPDRFSGSGSGTDFTLKINRVEAEDLGVYFCSQSTHLPFTFGSGTKLEIKR: 0.000464
